assay: Elimination half life in rat hepatocytes at 1 uM in presence of esterase inhibitor PMSF/CYP450 inhibitor ABT; type: ADME, cell-based, Hepatocyte; conditions: read-out: beta t1/2
measuredParameter: half-life at 1 µM

Returns the measured half-life at 1 µM for the input molecule. Input: COC(=O)N[C@H](C(=O)N[C@@H](Cc1ccccc1)[C@H](CN(Cc1ccc(-c2ccccn2)cc1)NC(=O)[C@@H](NC(=O)OC)C(C)(C)C)OC(=O)[C@@H](N)Cc1ccccc1)C(C)(C)C > 2 h

---

conditions: rat, in vivo, po, 3 mg/kg
measuredParameter: Tmax (min)
Report only the number, with the unit min understood.

{"columns": ["compoundStructureString", "unitAnnotation", "testValue"],
 "data": [
  ["COC(=O)N[C@H](C(=O)N[C@@H](Cc1ccccc1)[C@H](CN(Cc1ccc(-c2ccccn2)cc1)NC(=O)[C@@H](NC(=O)OC)C(C)(C)C)OC(=O)CN)C(C)(C)C", "min", 540],
  ["COC(=O)N[C@H](C(=O)N[C@@H](Cc1ccccc1)[C@H](CN(Cc1ccc(-c2ccccn2)cc1)NC(=O)[C@@H](NC(=O)OC)C(C)(C)C)OC(=O)[C@@H](NC(=O)[C@@H](N)C(C)C)C(C)C)C(C)(C)C", "min", 300],
  ["COC(=O)N[C@H](C(=O)N[C@@H](Cc1ccccc1)[C@H](CN(Cc1ccc(-c2ccccn2)cc1)NC(=O)[C@@H](NC(=O)OC)C(C)(C)C)OC(=O)CNCc1ccccc1)C(C)(C)C", "min", 36],
  ["COC(=O)N[C@H](C(=O)N[C@@H](Cc1ccccc1)[C@H](CN(Cc1ccc(-c2ccccn2)cc1)NC(=O)[C@@H](NC(=O)OC)C(C)(C)C)OC(=O)[C@@H](N)CCSC)C(C)(C)C", "min", 49.8]
]}

Now let's try a different one.
Returns the measured Tmax for the input molecule. Input: CNCC(=O)O[C@@H](CN(Cc1ccc(-c2ccccn2)cc1)NC(=O)[C@@H](NC(=O)OC)C(C)(C)C)[C@H](Cc1ccccc1)NC(=O)[C@@H](NC(=O)OC)C(C)(C)C 30

---

experiment: physchem; conditions: acetate buffer, pH 4
Description: Aqueous solubility of the compound in pH 4 acetate buffer by RP-UPLC analysis
measuredParameter: solubility

{"columns": ["compoundStructureString", "measuredParameter", "testValue"],
 "data": [
  ["COC(=O)N[C@H](C(=O)N[C@@H](Cc1ccccc1)[C@H](CN(Cc1ccc(-c2ccccn2)cc1)NC(=O)[C@@H](NC(=O)OC)C(C)(C)C)OC(=O)[C@@H](NC(=O)[C@@H](N)C(C)C)C(C)C)C(C)(C)C", "solubility", "> 1200 µg/mL"]
]}

Returns the measured solubility for the input compound. Input: COC(=O)N[C@H](C(=O)N[C@@H](Cc1ccccc1)[C@H](CN(Cc1ccc(-c2ccccn2)cc1)NC(=O)[C@@H](NC(=O)OC)C(C)(C)C)OC(=O)CN(C)C)C(C)(C)C > 1700 µg/mL

Returns the measured solubility for the input compound. Input: COC(=O)N[C@H](C(=O)N[C@@H](Cc1ccccc1)[C@H](CN(Cc1ccc(-c2ccccn2)cc1)NC(=O)[C@@H](NC(=O)OC)C(C)(C)C)OC(=O)[C@@H](N)Cc1c[nH]c2ccccc12)C(C)(C)C > 910 µg/mL

Returns the measured solubility for the input compound. Input: COC(=O)N[C@H](C(=O)N[C@@H](Cc1ccccc1)[C@H](CN(Cc1ccc(-c2ccccn2)cc1)NC(=O)[C@@H](NC(=O)OC)C(C)(C)C)OCOP(=O)([O-])[O-])C(C)(C)C.[Na+].[Na+] > 930 µg/mL

---

assay: Elimination half life in rat hepatocytes at 1 uM in presence of CYP450 inhibitor ABT; type: ADME, cell-based, Hepatocyte; conditions: with ABT (CYP450 inhibitor), read-out: beta t1/2
measuredParameter: half-life at 1 µM

Returns the measured half-life at 1 µM for the input compound. Input: COC(=O)N[C@H](C(=O)N[C@@H](Cc1ccccc1)[C@H](CN(Cc1ccc(-c2ccccn2)cc1)NC(=O)[C@@H](NC(=O)OC)C(C)(C)C)OC(=O)[C@@H](N)Cc1ccccc1)C(C)(C)C > 2 h

---

settings: rat, in vivo, po, 3 mg/kg
Description: AUClast in cannulated Sprague-Dawley rat assessed as atazanavir level at 3 mg/kg equiv of atazanavir administered orally by UPLC/MS/MS analysis
Parameter: AUClast. Scope: all listed entries.
Report only the number, with the unit µM·h understood.

{"columns": ["compoundStructureString", "unitAnnotation", "AUClast"],
 "data": [
  ["COC(=O)N[C@H](C(=O)N[C@@H](Cc1ccccc1)[C@H](CN(Cc1ccc(-c2ccccn2)cc1)NC(=O)[C@@H](NC(=O)OC)C(C)(C)C)OC(=O)[C@@H](N)Cc1ccccc1)C(C)(C)C", "µM·h", 0.573],
  ["COC(=O)N[C@H](C(=O)N[C@@H](Cc1ccccc1)[C@H](CN(Cc1ccc(-c2ccccn2)cc1)NC(=O)[C@@H](NC(=O)OC)C(C)(C)C)OCOP(=O)([O-])[O-])C(C)(C)C.[Na+].[Na+]", "µM·h", 0.277],
  ["COC(=O)N[C@H](C(=O)N[C@@H](Cc1ccccc1)[C@H](CN(Cc1ccc(-c2ccccn2)cc1)NC(=O)[C@@H](NC(=O)OC)C(C)(C)C)OC(=O)CN)C(C)(C)C", "µM·h", 0.224],
  ["CNCC(=O)O[C@@H](CN(Cc1ccc(-c2ccccn2)cc1)NC(=O)[C@@H](NC(=O)OC)C(C)(C)C)[C@H](Cc1ccccc1)NC(=O)[C@@H](NC(=O)OC)C(C)(C)C", "µM·h", 0.0296]
]}

Now let's try a different one.
Returns the measured AUClast for the input molecule. Input: COC(=O)N[C@H](C(=O)N[C@@H](Cc1ccccc1)[C@H](CN(Cc1ccc(-c2ccccn2)cc1)NC(=O)[C@@H](NC(=O)OC)C(C)(C)C)OC(=O)CNCc1ccccc1)C(C)(C)C 0.1

---

conditions: rat, in vivo, po, 3 mg/kg
Parameter: Tmax. Scope: all listed entries.
Report only the number, with the unit min understood.

Solved entries (count: 4):
{"columns": ["compoundStructureString", "Tmax [min]"],
 "data": [
  ["COC(=O)N[C@H](C(=O)N[C@@H](Cc1ccccc1)[C@H](CN(Cc1ccc(-c2ccccn2)cc1)NC(=O)[C@@H](NC(=O)OC)C(C)(C)C)OC(=O)[C@@H](C)N)C(C)(C)C", 258],
  ["COC(=O)N[C@H](C(=O)N[C@@H](Cc1ccccc1)[C@H](CN(Cc1ccc(-c2ccccn2)cc1)NC(=O)[C@@H](NC(=O)OC)C(C)(C)C)OC(=O)[C@H](C)N)C(C)(C)C", 180],
  ["COC(=O)N[C@H](C(=O)N[C@@H](Cc1ccccc1)[C@H](CN(Cc1ccc(-c2ccccn2)cc1)NC(=O)[C@@H](NC(=O)OC)C(C)(C)C)OC(=O)[C@@H](N)Cc1ccccc1)C(C)(C)C", 30],
  ["COC(=O)N[C@H](C(=O)N[C@@H](Cc1ccccc1)[C@H](CN(Cc1ccc(-c2ccccn2)cc1)NC(=O)[C@@H](NC(=O)OC)C(C)(C)C)OC(=O)CNC(=O)[C@H](N)Cc1ccccc1)C(C)(C)C", 30]
]}

Now let's try a different one.
Returns the measured Tmax for the input compound. Input: CN[C@@H](Cc1ccccc1)C(=O)N(C)CC(=O)O[C@@H](CN(Cc1ccc(-c2ccccn2)cc1)NC(=O)[C@@H](NC(=O)OC)C(C)(C)C)[C@H](Cc1ccccc1)NC(=O)[C@@H](NC(=O)OC)C(C)(C)C 18

---

test: Drug recovery in feces of po dosed human; format: ADME, organism-based; settings: faeces, read-out: Drug recovery
measuredParameter: dose excreted (%)
Report only the number, with the unit % understood.

Returns the measured dose excreted for the input molecule. Input: COC(=O)N[C@H](C(=O)N[C@@H](Cc1ccccc1)[C@@H](O)CN(Cc1ccc(-c2ccccn2)cc1)NC(=O)[C@@H](NC(=O)OC)C(C)(C)C)C(C)(C)C [ATAZANAVIR] 79

---

Parameter: Cmax. Scope: all listed entries.
settings: rat, in vivo, po, 3 mg/kg
Report only the number, with the unit nM understood.

{"columns": ["compoundStructureString", "measuredParameter", "unitAnnotation", "testValue"],
 "data": [
  ["COC(=O)N[C@H](C(=O)N[C@@H](Cc1ccccc1)[C@H](CN(Cc1ccc(-c2ccccn2)cc1)NC(=O)[C@@H](NC(=O)OC)C(C)(C)C)OC(=O)[C@H](NC(=O)[C@H](N)C(C)C)C(C)C)C(C)(C)C", "Cmax", "nM", 12],
  ["CNCC(=O)O[C@@H](CN(Cc1ccc(-c2ccccn2)cc1)NC(=O)[C@@H](NC(=O)OC)C(C)(C)C)[C@H](Cc1ccccc1)NC(=O)[C@@H](NC(=O)OC)C(C)(C)C", "Cmax", "nM", 9]
]}

Returns the measured Cmax for the input compound. Input: CN[C@@H](Cc1ccccc1)C(=O)N(C)CC(=O)O[C@@H](CN(Cc1ccc(-c2ccccn2)cc1)NC(=O)[C@@H](NC(=O)OC)C(C)(C)C)[C@H](Cc1ccccc1)NC(=O)[C@@H](NC(=O)OC)C(C)(C)C 160

Returns the measured Cmax for the input compound. Input: COC(=O)N[C@H](C(=O)N[C@@H](Cc1ccccc1)[C@H](CN(Cc1ccc(-c2ccccn2)cc1)NC(=O)[C@@H](NC(=O)OC)C(C)(C)C)OC(=O)[C@H](C)N)C(C)(C)C 39

Returns the measured Cmax for the input compound. Input: COC(=O)N[C@H](C(=O)N[C@@H](Cc1ccccc1)[C@H](CN(Cc1ccc(-c2ccccn2)cc1)NC(=O)[C@@H](NC(=O)OC)C(C)(C)C)OC(=O)[C@@H](N)Cc1ccc(O)cc1)C(C)(C)C 99

Returns the measured Cmax for the input compound. Input: COC(=O)N[C@H](C(=O)N[C@@H](Cc1ccccc1)[C@H](CN(Cc1ccc(-c2ccccn2)cc1)NC(=O)[C@@H](NC(=O)OC)C(C)(C)C)OC(=O)CNC(=O)[C@H](N)Cc1ccccc1)C(C)(C)C 51

Returns the measured Cmax for the input compound. Input: COC(=O)N[C@H](C(=O)N[C@@H](Cc1ccccc1)[C@H](CN(Cc1ccc(-c2ccccn2)cc1)NC(=O)[C@@H](NC(=O)OC)C(C)(C)C)OC(=O)CN(C)C(=O)[C@@H](N)Cc1ccccc1)C(C)(C)C.Cl.Cl 794

Returns the measured Cmax for the input compound. Input: COC(=O)N[C@H](C(=O)N[C@@H](Cc1ccccc1)[C@H](CN(Cc1ccc(-c2ccccn2)cc1)NC(=O)[C@@H](NC(=O)OC)C(C)(C)C)OC(=O)CNC(=O)[C@@H](N)Cc1ccccc1)C(C)(C)C 9

Returns the measured Cmax for the input compound. Input: COC(=O)N[C@H](C(=O)N[C@@H](Cc1ccccc1)[C@H](CN(Cc1ccc(-c2ccccn2)cc1)NC(=O)[C@@H](NC(=O)OC)C(C)(C)C)OC(=O)[C@@H](NC(=O)[C@@H](N)C(C)C)C(C)C)C(C)(C)C 4

Returns the measured Cmax for the input compound. Input: COC(=O)N[C@H](C(=O)N[C@@H](Cc1ccccc1)[C@H](CN(Cc1ccc(-c2ccccn2)cc1)NC(=O)[C@@H](NC(=O)OC)C(C)(C)C)OC(=O)[C@@H](N)CCSC)C(C)(C)C 37
